Biological target: T1, C5a receptor (Homo sapiens, UniProt P21730)
T1 construct: Neutrophils were purified from human peripheral blood; endogenous in cells; host or cells: neutrophils from human peripheral blood
T1 sequence (P21730 1-350): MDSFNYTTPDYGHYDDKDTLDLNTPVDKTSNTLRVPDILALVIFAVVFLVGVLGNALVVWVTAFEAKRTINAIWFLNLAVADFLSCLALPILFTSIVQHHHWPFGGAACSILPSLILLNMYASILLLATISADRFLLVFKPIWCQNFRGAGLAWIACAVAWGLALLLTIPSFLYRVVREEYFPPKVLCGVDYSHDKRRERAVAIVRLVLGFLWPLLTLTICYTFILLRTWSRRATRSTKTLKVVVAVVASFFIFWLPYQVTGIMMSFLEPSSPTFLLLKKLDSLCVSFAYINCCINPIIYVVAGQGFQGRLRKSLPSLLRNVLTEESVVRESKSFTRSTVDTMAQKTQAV
Assay: C5a induced Ca++ rise assay in fura-2 loaded neutrophils
Assay type: cell-based
Conditions: calcium rise assay
Assay readout: Concentration up to which tested with agonist activity not detected

These recorded examples may help you get a feel for the data.
>  <Molecule>
C5a (1-70, T1M, C275, M7OC) (protein, UniProt P01031 678-747, looked up, variant T1M C27S M70C, C5a anaphylatoxin) MLQKKIEEIAAKYKHSVVKKCCYDGASVNNDETCEQRAARISLGPRCIKAFTECCVVASQLRANISHKDC

>  <Result>
> 1 µM

$$$$
>  <Molecule>
C5a (1-71, T1M, C27S, H67F, Q71C) (protein, UniProt P01031 678-751, looked up, variant T1M C27S H67F Q71C, C5a anaphylatoxin truncated to residues 1-71) C5a anaphylatoxin: MLQKKIEEIAAKYKHSVVKKCCYDGASVNNDETCEQRAARISLGPRCIKAFTECCVVASQLRANISFKDMCLGR

>  <Result>
> 0.8 µM

$$$$
>  <Molecule>
C5a (1-71, T1M, C27S, Q71C) (protein, UniProt P01031 678-751, looked up, variant T1M C27S Q71C, C5a anaphylatoxin) C5a anaphylatoxin: MLQKKIEEIAAKYKHSVVKKCCYDGASVNNDETCEQRAARISLGPRCIKAFTECCVVASQLRANISHKDMCLGR

>  <Result>
> 3 µM

$$$$

# next molecule below
Measured Concentration up to which tested with agonist activity not detected of C5a (1-72, T1M, C27S, L72C) (protein, UniProt P01031 678-751, looked up, variant T1M C27S L72C, C5a anaphylatoxin truncated to residues 1-72) C5a anaphylatoxin: MLQKKIEEIAAKYKHSVVKKCCYDGASVNNDETCEQRAARISLGPRCIKAFTECCVVASQLRANISHKDMQCGR : > 1.5 µM

Reference source: patent US5807824A
